Biological target: catalytic domain of human Bub1 (amino acids 704-1085) (Homo sapiens (Human), UniProt O43683)
Sequence (O43683 704-1085): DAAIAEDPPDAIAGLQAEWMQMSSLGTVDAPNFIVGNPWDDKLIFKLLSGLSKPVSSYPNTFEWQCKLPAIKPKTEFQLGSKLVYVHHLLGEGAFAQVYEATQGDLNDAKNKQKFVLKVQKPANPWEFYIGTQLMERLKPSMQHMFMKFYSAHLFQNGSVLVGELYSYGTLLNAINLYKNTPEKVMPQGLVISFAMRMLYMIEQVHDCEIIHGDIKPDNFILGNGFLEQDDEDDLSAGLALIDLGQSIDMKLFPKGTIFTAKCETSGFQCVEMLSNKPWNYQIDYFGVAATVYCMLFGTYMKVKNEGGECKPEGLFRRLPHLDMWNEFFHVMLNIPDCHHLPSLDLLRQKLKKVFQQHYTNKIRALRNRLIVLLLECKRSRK
QUANTITY_KIND: IC50

> print(dat)
                                   compound  observed.value
1  CCOc1cc(F)c(Cn2nc(-c3ncc(OC[C@@H]4CCC(=O)N4)c(Nc4ccncc4)n3)c3ccccc32)c(F)c1 [Example 4-22]          5.8 nM
2  COc1cnc(-c2nn(Cc3ccccc3Cl)c3ccccc23)nc1Nc1ccncc1          6.7 nM
3  COc1ccc(Cn2nc(-c3ncc(OC4CC4)c(Nc4ccncc4)n3)c3ccccc32)cc1         3300 nM
4  CCOc1cc(F)c(CN(c2ccncc2)c2nc(-c3nn(Cc4c(F)cc(OCC)cc4F)c4ccccc34)ncc2OC)c(F)c1         9300 nM
5  NS(=O)(=O)COc1cnc(-c2nn(Cc3ccccc3F)c3ccccc23)nc1Nc1ccncc1          7.5 nM
6  CCOc1cc(F)c(Cn2nc(-c3ncc(OC)c(Nc4ccncc4)n3)c3ccccc32)c(OC)c1           83 nM

* * *

Tested on: B16F10 cells
Test: Proliferation assay (B16F10 cell line)
Format: cell-based
Conditions: Mus musculus, B16-F10, 96 h, B16F10, 4 days, crystal violet; read-out: Biological Assay 2: Proliferation assay (B16F10 cell line) median IC50
Method: Cultivated tumor cells (cells were ordered from ATCC, except HeLa-MaTu and HeLa-MaTu-ADR, which were ordered from EPO-GmbH, Berlin) were plated at a density of 1000 to 5000 cells/well, depending on the growth rate of the respective cell line, in a 96-well multititer plate in 200 μL of their respective growth medium supplemented 10% fetal calf serum. […] The IC50 values were determined by means of a 4 parameter fit using the company's own software.
pIC50: −log10 of the molar value.
QUANTITY_KIND: pIC50

> print(dat)
                         compound.structure  quantity.kind  observed.value
1  CCCc1ccc(Cn2nc(-c3ncc(OC)c(Nc4ccncc4)n3)c3ccccc32)cc1          pIC50            5.00
2  CCOc1cc(F)c(Cn2nc(-c3ncc(OC)c(Nc4ccncc4)n3)c3ccccc32)c(F)c1          pIC50            5.96
3  COc1cnc(-c2nn(Cc3cc4c(cc3Br)OCO4)c3ccccc23)nc1Nc1ccncc1          pIC50            5.82
4  COc1cnc(-c2nn(Cc3ccc4c(C)cc(=O)oc4c3)c3ccccc23)nc1Nc1ccncc1          pIC50            5.89
5  COc1cnc(-c2nn(Cc3c(Cl)ccc(C(F)(F)F)c3Cl)c3ccccc23)nc1Nc1ccncc1          pIC50            5.92
6  COC(=O)c1ccc(Cl)c(Cn2nc(-c3ncc(OC)c(Nc4ccncc4)n3)c3ccccc32)c1Cl          pIC50            6.00
7  COC(=O)c1ccc(Cn2nc(-c3ncc(OC)c(Nc4ccncc4)n3)c3ccccc32)c(Cl)c1          pIC50            5.54

* * *

Target: catalytic domain of human Bub1 (amino acids 704-1085) (Homo sapiens (Human))
pIC50: −log10 of the molar value.
Threshold rule: pIC50 greater than or equal to 7 is Condition met; below that, Condition not met.

> print(dat)
                                    compound  qualitative.label
 1  OCC1COc2cnc(-c3nn(Cc4ccccc4F)c4ccccc34)nc2N1c1ccncc1 (centres unmarked)  Condition not met
 2  CNC(=O)c1cnccc1Nc1nc(-c2nn(Cc3ccccc3F)c3ccccc23)ncc1OCCO      Condition met
 3  CCOc1cc(F)c(Cn2nc(-c3ncc(O)c(Nc4ccncc4)n3)c3ccccc32)c(F)c1      Condition met
 4  COc1cnc(-c2nn(Cc3cc(C)c(C)cc3Cl)c3ccccc23)nc1Nc1ccncc1      Condition met
 5  CCCOc1cc(F)c(Cn2nc(-c3ncc(OC)c(Nc4ccncc4)n3)c3ccccc32)c(F)c1      Condition met
 6  CC(C)(C)OC(=O)NCCOCCOc1cnc(-c2nn(Cc3ccccc3F)c3ccccc23)nc1Nc1ccncc1  Condition not met
 7  COc1cnc(-c2nn(Cc3ccc(S(F)(F)(F)(F)F)cc3)c3ccccc23)nc1Nc1ccncc1  Condition not met
 8  COc1cnc(-c2nn(Cc3cccc(-c4noc(C)n4)c3)c3ccccc23)nc1Nc1ccncc1      Condition met
 9  COc1cnc(-c2nn(Cc3c(Cl)ccc(N)c3Cl)c3ccccc23)nc1Nc1ccncc1      Condition met
10  CCOC(=O)c1cnccc1Nc1nc(-c2nn(Cc3ccccc3F)c3ccccc23)ncc1OCCO      Condition met
11  OCC1(COc2cnc(-c3nn(Cc4ccccc4F)c4ccccc34)nc2Nc2ccncc2)COC1      Condition met
12  CCOc1cc(F)c(Cn2nc(-c3ncc(OC)c(Nc4ccncc4CO)n3)c3ccccc32)c(F)c1      Condition met
13  COc1ccc(Cn2nc(-c3ncc(OC)c(Nc4ccncc4C(F)(F)F)n3)c3ccccc32)cc1      Condition met
